- method: PhoP regulon inhibitor project modified counter assay, GFP fluorescence readout, dose response (AID 1985)
- reportedConditions: S. Typhi, 4 h; series mostly up to 150 µM
Out of some 2,300 compounds screened, about 1,000 (43%) were called active. So high a share suggests a set chosen from earlier hits. This is one part of the list. Potency and affinity values are given separately.
recordedEndpoint: outcome

Known results for molecules:
>>> result("O=C(NCc1cccnc1)c1ccc(COc2ccc(Cl)cc2)cc1")
"inactive"
>>> result("O=c1[nH]n(-c2ccccc2)c(=O)c2ccccc12")
"inactive"
>>> result("CCOC(=O)c1ccc(NC(=O)CSc2nc(N3CCOCC3)nc(N3CCOCC3)n2)cc1")
"inactive"
>>> result("O=C(COC(=O)/C=C/c1cccc(C(F)(F)F)c1)NCc1ccccc1")
"inactive"

Note to self: outcome recorded for CC(=O)NS(=O)(=O)c1ccc(Nc2ccc([N+](=O)[O-])c3nonc23)cc1 was inactive

Just so you know, measured outcome for CN(C)CCNC(=O)c1ccc(COc2ccc(Cl)cc2Cl)cc1 came out at inactive

outcome for N#C/C(=C\c1ccc(O)c(O)c1)C(=O)c1ccc(O)c(O)c1 is inactive

O=C(Nc1ccc2[nH]c(=S)sc2c1)Nc1ccccc1F has a reported outcome of inactive

The molecule CCOc1ccccc1NC(=O)CSc1nc(N)c(C#N)cc1C#N showed outcome equal to inactive

outcome reported for this molecule Nc1ncnc2nc(SCC(=O)Nc3cccc(C(F)(F)F)c3)[nH]c12 : inactive

For this molecule ( CN1CCN(c2ccc(NC(=O)CSc3ccccc3)cc2F)CC1 ), measured outcome is inactive

----------
- method: PhoP regulon inhibitor project modified counter assay, GFP fluorescence readout, dose response (AID 1985)
- reportedConditions: S. Typhi, 4 h; series mostly up to 150 µM
Hit rate of the full screen: of about 2,300 compounds, about 1,000 (43%) were called active. The set was probably picked from earlier hits. The list shows a part of the results. Measured potencies and affinities stand elsewhere.
recordedEndpoint: outcome

>>> result("Cc1ccc2c(c1)C1CN(C)CCC1N2C(=O)COc1ccccc1F (stereo unspecified)")
"inactive"
>>> result("O=C(NCc1ccc2c(c1)OCO2)c1ccc2c(c1)C(=O)N(Cc1cccnc1)C2=O")
"inactive"
>>> result("CC(=O)c1ccc(NC(=O)CN2CCCCCC2)cc1")
"inactive"
>>> result("O=C(Cn1[nH]c(=O)c2ccccc2c1=O)Nc1ccc(-c2nnc3n2CCCCC3)cc1")
"inactive"

Now turn to the next compound.
Measured outcome of CCc1ccccc1NC(=S)N(Cc1cccc(C)c1)c1cccnc1 : inactive

----------
- method: PhoP regulon inhibitor project modified counter assay, GFP fluorescence readout, dose response (AID 1985)
- reportedConditions: S. Typhi, 4 h; series mostly up to 150 µM
Screen size: about 2,300 compounds; about 1,000 (43%) were called active. So high a share suggests a set chosen from earlier hits. Some of the results follow. Results with a measured potency or affinity are listed apart.
recordedEndpoint: outcome

Some molecules with known outcome results, for comparison:
>>> result("CCc1nc(SCC(=O)NCCc2ccccc2)c2c(=O)n(C)c(=O)n(C)c2n1")
"inactive"
>>> result("CCOc1ccc(-c2ccc(SCC(=O)N3CCOCC3)nn2)cc1")
"inactive"
>>> result("CCOC(=O)c1[nH]c2ccc(Cl)cc2c1NC(=O)c1nonc1C")
"inactive"
>>> result("O=C(CN(CCc1ccccc1)C(=O)CNS(=O)(=O)c1ccc(F)cc1)NCC1CCCO1 (stereo unspecified)")
"inactive"
>>> result("Cc1c(C)c2ccc(OC(C)C(=O)N[C@@H](Cc3c[nH]c4ccccc34)C(=O)O)c(C)c2oc1=O (stereo partly specified)")
"inactive"
>>> result("C[C@@H](NC(=O)/C(C#N)=C/c1ccc(O)c(O)c1)c1ccccc1")
"inactive"

Record COc1cccc(-c2ccc(SCc3ccccn3)nn2)c1 , field outcome: inactive

get_value(item= CCOc1ccc(S(=O)(=O)N2CCC(C(=O)NCCN3CCOCC3)CC2)cc1C , readout=outcome) returns inactive
